test: Inhibition of HCV genotype 1 polymerase; parameters: species or system Hepacivirus hominis
pIC50: −log10 of the molar value.
reported metric: pIC50

- compound: "O=c1c(C2=NS(=O)(=O)c3cccc(O)c3N2)c(O)c2cccnc2n1Cc1ccccc1"
  value measured: 5.08
- compound: "CC(C)CCn1c(=O)c(C2=NS(=O)(=O)c3cc(NS(=O)(=O)N4CCCCC4)ccc3N2)c(O)c2cccnc21"
  value measured: 7.29
- compound: "CC(C)CCn1c(=O)c(C2=NS(=O)(=O)c3cc(NS(=O)(=O)NC(=O)OCCC#N)ccc3N2)c(O)c2cccnc21"
  value measured: 7.46
- compound: "Cc1cccc2c1N=C(c1c(O)c3cccnc3n(Cc3ccccc3)c1=O)NS2(=O)=O"
  value measured: 5.17
- compound: "CC(C)CCn1c(=O)c(C2=NS(=O)(=O)c3cc(OCC(=O)O)ccc3N2)c(O)c2cccnc21"
  value measured: 6.44
- compound: "CCCC(CC)Nn1c(=O)c(C2=NS(=O)(=O)c3ccccc3N2)c(O)c2ccccc21 (configuration not stated)"
  value measured: 5.72
- compound: "O=c1c(C2=NS(=O)(=O)c3ccccc3N2)c(O)c2ccccc2n1NCc1ccccc1Br"
  value measured: 5.17
- compound: "CC(C)CCn1c(=O)c(C2=NS(=O)(=O)c3cc(OCC(=O)OC(C)(C)C)ccc3N2)c(O)c2cccnc21"
  value measured: 5.30
- compound: "COC(=O)c1ccc(NS(=O)(=O)Nc2ccc3c(c2)S(=O)(=O)N=C(c2c(O)c4cccnc4n(CCC(C)C)c2=O)N3)cc1"
  value measured: 7.32
- compound: "CC(C)CCn1c(=O)c(C2=NS(=O)(=O)c3cc(NS(=O)(=O)NC4CCCCC4)ccc3N2)c(O)c2cccnc21"
  value measured: 7.17
- compound: "CC(Nn1c(=O)c(C2=NS(=O)(=O)c3ccccc3N2)c(O)c2ccccc21)c1ccccc1 (configuration not stated)"
  value measured: 4.78
- compound: "CC(C)(C)CCNn1c(=O)c(C2=NS(=O)(=O)c3ccccc3N2)c(O)c2ccccc21"
  value measured: 6.39
- compound: "O=c1c(C2=NS(=O)(=O)c3ccccc3N2)c(O)c2ccccc2n1NCc1ccc(Br)cc1"
  value measured: 4.98
- compound: "COCCOC(=O)NS(=O)(=O)Nc1ccc2c(c1)S(=O)(=O)NC(c1c(O)c3cccnc3n(CCC(C)C)c1=O)=N2"
  value measured: 7.06
- compound: "O=c1c(C2=NS(=O)(=O)c3ccccc3N2)c(O)c2ccccc2n1NCc1ccccc1"
  value measured: 5.29
- compound: "CC(C)CCn1c(=O)c(C2=NS(=O)(=O)c3cc(NS(=O)(=O)Nc4ccc(C(=O)O)cc4)ccc3N2)c(O)c2cccnc21"
  value measured: 7.70
- compound: "CC(C)CCn1c(=O)c(C2=NS(=O)(=O)c3cc(NC(=O)C(F)(F)F)ccc3N2)c(O)c2cccnc21"
  value measured: 6.04

====

test: Inhibition of HCV genotype 1 polymerase; parameters: species or system Hepacivirus hominis
pIC50: −log10 of the molar value.
# pIC50 per entry
reported metric: pIC50

- substance smiles: "O=c1c(C2=NS(=O)(=O)c3ccccc3N2)c(O)c2ccccc2n1NCC1CCC1"
  value measured: 6.56
- substance smiles: "O=c1c(C2=NS(=O)(=O)c3ccccc3N2)c(O)c2ccccc2n1NCC1CCCCCC1"
  value measured: 5.98
- substance smiles: "CC(C)CCn1c(=O)c(C2=NS(=O)(=O)c3cc(NS(=O)(=O)NC(=O)OCCCl)ccc3N2)c(O)c2cccnc21"
  value measured: 6.72
- substance smiles: "CNS(=O)(=O)Nc1ccc2c(c1)S(=O)(=O)NC(c1c(O)c3cccnc3n(CCC(C)C)c1=O)=N2"
  value measured: 7.85
- substance smiles: "Cc1ccsc1CNn1c(=O)c(C2=NS(=O)(=O)c3ccccc3N2)c(O)c2ccccc21"
  value measured: 4.82
- substance smiles: "O=c1c(C2=NS(=O)(=O)c3ccccc3N2)c(O)c2ccccc2n1NCC1CCCCC1"
  value measured: 5.60
- substance smiles: "O=c1c(C2=NS(=O)(=O)c3ccccc3N2)c(O)c2ccccc2n1NCc1cccc(Br)c1"
  value measured: 5.98
- substance smiles: "Cc1ccc2c(c1)S(=O)(=O)NC(c1c(O)c3cccnc3n(Cc3ccccc3)c1=O)=N2"
  value measured: 4.59
- substance smiles: "O=c1c(C2=NS(=O)(=O)c3cc(Br)ccc3N2)c(O)c2cccnc2n1Cc1ccccc1"
  value measured: 4.78
- substance smiles: "CNC(=O)c1ccc(NS(=O)(=O)Nc2ccc3c(c2)S(=O)(=O)N=C(c2c(O)c4cccnc4n(CCC(C)C)c2=O)N3)cc1"
  value measured: 7.37
- substance smiles: "CC(C)CCn1c(=O)c(C2=NS(=O)(=O)c3cc(NS(=O)(=O)NC4CCCC4)ccc3N2)c(O)c2cccnc21"
  value measured: 7.41
- substance smiles: "C=CCOC(=O)NS(=O)(=O)Nc1ccc2c(c1)S(=O)(=O)N=C(c1c(O)c3cccnc3n(CCC(C)C)c1=O)N2"
  value measured: 7.06
- substance smiles: "CCCC(CCC)Nn1c(=O)c(C2=NS(=O)(=O)c3ccccc3N2)c(O)c2ccccc21"
  value measured: 5.65
- substance smiles: "CC(C)CCn1c(=O)c(C2=NS(=O)(=O)c3cc(NS(=O)(=O)N4CCC4)ccc3N2)c(O)c2cccnc21"
  value measured: 7.62
